FYI, the data here is from ChEMBL document CHEMBL4715736.

- Test system: OVCAR-8
- assay: Growth inhibition of human OVCAR-8 cells assessed as cell growth at 0.01 uM incubated for 48 hrs by sulforhodamine B assay relative to control
- Type: functional
- details: read-out: Activity
resultType: growth at 0.01 µM (%)

molsmiles=COc1cccc(NC(=O)c2sc3nc4c(cc3c2N)CN(Cc2ccccc2)CC4)c1 quantitativeresult=99
molsmiles=CCc1ccccc1NC(=O)c1sc2nc3c(cc2c1N)C(=O)CCC3 quantitativeresult=98
molsmiles=Cc1cccc(NC(=O)c2sc3nc4c(cc3c2N)C(=O)CCC4)c1 quantitativeresult=100
molsmiles=CCc1cccc(C)c1NC(=O)c1sc2nc3c(cc2c1N)C(=O)CCC3 quantitativeresult=99
molsmiles=Cc1ccc(NC(=O)c2sc3nc4c(cc3c2N)C(=O)CCC4)cc1C quantitativeresult=97
molsmiles=Nc1c(C(=O)Nc2ccccc2)sc2nc3c(cc12)CN(Cc1ccccc1)CC3 quantitativeresult=100
molsmiles=Cc1cc(C)c(NC(=O)c2sc3nc4c(cc3c2N)CN(Cc2ccccc2)CC4)c(C)c1 quantitativeresult=101
molsmiles=CN1CCc2nc3sc(C(N)=O)c(N)c3c(-c3cccs3)c2C1 quantitativeresult=106

---

Listed molecules paired with reported growth at 0.01 µM
- Tested on: SK-MEL-5
- assay: Growth inhibition of human SK-MEL-5 cells assessed as cell growth at 0.01 uM incubated for 48 hrs by sulforhodamine B assay relative to control
- Type: functional
- details: read-out: Activity
resultType: growth at 0.01 µM (%)

molsmiles=Cc1ccc(NC(=O)c2sc3nc4c(cc3c2N)C(=O)CCC4)cc1C units=% quantitativeresult=95
molsmiles=COc1cccc(NC(=O)c2sc3nc4c(cc3c2N)CN(Cc2ccccc2)CC4)c1 units=% quantitativeresult=99
molsmiles=CCc1ccccc1NC(=O)c1sc2nc3c(cc2c1N)C(=O)CCC3 units=% quantitativeresult=96
molsmiles=Cc1cccc(NC(=O)c2sc3nc4c(cc3c2N)C(=O)CCC4)c1 units=% quantitativeresult=97
molsmiles=CN1CCc2nc3sc(C(N)=O)c(N)c3c(-c3cccs3)c2C1 units=% quantitativeresult=96
molsmiles=CCc1cccc(C)c1NC(=O)c1sc2nc3c(cc2c1N)C(=O)CCC3 units=% quantitativeresult=92
molsmiles=Cc1cc(C)c(NC(=O)c2sc3nc4c(cc3c2N)CN(Cc2ccccc2)CC4)c(C)c1 units=% quantitativeresult=98
molsmiles=Nc1c(C(=O)Nc2ccccc2)sc2nc3c(cc12)CN(Cc1ccccc1)CC3 units=% quantitativeresult=104

---

- Test system: OVCAR-3
- assay: Growth inhibition of human OVCAR-3 cells assessed as cell growth at 10 uM incubated for 48 hrs by sulforhodamine B assay relative to control
- Format: functional
- details: read-out: Activity
We label by threshold. Values of growth at 10 µM strictly beneath 70% are 1.0. Values of 70% and up are 0.0.

molsmiles=CC1(C)CCc2cc(-c3ccn(S(=O)(=O)c4ccc(C(F)(F)F)cc4)n3)ccc2O1 assaytarget=OVCAR-3 classassignment=0.0
molsmiles=Cc1cc(C)c(NC(=O)c2sc3nc4c(cc3c2N)CN(Cc2ccccc2)CC4)c(C)c1 assaytarget=OVCAR-3 classassignment=1.0
molsmiles=CC1(C)CCc2cc(-c3ccn(S(=O)(=O)c4ccc(Cl)cc4Cl)n3)ccc2O1 assaytarget=OVCAR-3 classassignment=0.0
molsmiles=CC(=O)c1ccc2c(N)c(C(=O)Nc3ccccc3)sc2n1 assaytarget=OVCAR-3 classassignment=0.0
molsmiles=CCc1ccccc1NC(=O)c1sc2nc3c(cc2c1N)C(=O)CCC3 assaytarget=OVCAR-3 classassignment=1.0
molsmiles=CC(=O)Nc1ccc(S(=O)(=O)n2ccc(-c3ccc4c(c3)CCC(C)(C)O4)n2)cc1 assaytarget=OVCAR-3 classassignment=0.0
molsmiles=Cc1ccc(NC(=O)c2sc3nc4c(cc3c2N)C(=O)CCC4)cc1C assaytarget=OVCAR-3 classassignment=1.0
molsmiles=COc1cccc(NC(=O)c2sc3nc4c(cc3c2N)CN(Cc2ccccc2)CC4)c1 assaytarget=OVCAR-3 classassignment=1.0
molsmiles=COc1ccc(-c2ccn(S(=O)(=O)c3ccc(OC)cc3)n2)cc1 assaytarget=OVCAR-3 classassignment=0.0
molsmiles=COc1ccc(-c2ccn(S(=O)(=O)c3ccc(C)cc3)n2)cc1 assaytarget=OVCAR-3 classassignment=0.0
